- assay-explanation: protein stability index of a GFP-peptide fusion (yeast GPS) (PSI 1-4); higher = more stable; sorted into four equal gates, so the index is relative within each strain
- condition-label: san1∆
readout-label: protein stability index
// keep it numeric: no unit symbol after the value

MSEEGPQVKIREASKDN [RPB3]	2.94

**Query** Please give the measured protein stability index for this sequence: FEEWIKMATDNKINSRN [BRN1]
**Result** 3.27

**Query** Please give the measured protein stability index for this sequence: IDAMKAVAEAYNNRSLL [RPN6]
**Result** 2.28

###

- assay-explanation: protein stability index of a GFP-peptide fusion (yeast GPS) (PSI 1-4); higher = more stable; sorted into four equal gates, so the index is relative within each strain
- condition-label: pdr5∆
readout-label: protein stability index
// keep it numeric: no unit symbol after the value

Solved cases (5 shown):
AQQLVGVYKRDNRTKST [SMC4]	3.04
PGPLPDTDSKPSSQSQN [YLR018C/POM34]	3.15
VMNKNQETAISVAKLFK [RPT6]	1.72
PESIDTILSSKLSNIWM [SRB2]	2.78
YGIFGEGVEYSFLHVDD [POP8]	2.31

**Query** Please give the measured protein stability index for this sequence: DYLNAELGEFFVNGVAT [FAS2]
**Result** 2.79

**Query** Please give the measured protein stability index for this sequence: DGKEDVEKGTPLGKILL [SME1]
**Result** 3.44

**Query** Please give the measured protein stability index for this sequence: GVERLIPVGDNTVVGIS [PRE4]
**Result** 2.91

**Query** Please give the measured protein stability index for this sequence: VRTNRFDIIEESFKGLQ [ECM29]
**Result** 2.47

**Query** Please give the measured protein stability index for this sequence: AKICALLFFNFSHSLTT [NUT1]
**Result** 1.45

**Query** Please give the measured protein stability index for this sequence: FMRNGLLEGLNEKIEKR [UBP6]
**Result** 2.87

**Query** Please give the measured protein stability index for this sequence: ASKGIDRLSLQDRQQLL [ECM29]
**Result** 3.11

**Query** Please give the measured protein stability index for this sequence: NRKIYQFTLYDRELNEV [SMC3]
**Result** 2.62

**Query** Please give the measured protein stability index for this sequence: TKEMDEVEEDDEDDDQP [SWI3]
**Result** 3.49

###

Each entry below carries its recorded protein stability index.
- assay-explanation: protein stability index of a GFP-peptide fusion (yeast GPS) (PSI 1-4); higher = more stable; sorted into four equal gates, so the index is relative within each strain
- condition-label: pdr5∆
// keep it numeric: no unit symbol after the value

Solved cases (6 shown):
QITLTFISELCSIEPIA [YML103C/NUP188]	1.46
LAHVDQIVDIRNKRAVQ [YJL039C/NUP192]	2.55
MYNGKDRAQNSYQPMYQ [SSN3]	2.48
KTASLGNSKDDLLDMIQ [ISW2]	2.22
KTHRGLRKVACIGAWHP [RPL3]	3.19
TPVVLATPIPEEVQQAQ [RPS5]	2.43

**Query** Please give the measured protein stability index for this sequence: KSCEPVSISTSVKPHVV [SIR4]
**Result** 2.97

###

- assay-explanation: protein stability index of a GFP-peptide fusion (yeast GPS) (PSI 1-4); higher = more stable; sorted into four equal gates, so the index is relative within each strain
- condition-label: ubr1∆
readout-label: protein stability index
// keep it numeric: no unit symbol after the value

Solved cases (3 shown):
QLCQITCQILESGEDEA [RRP46]	1.99
YLNGTLIGSIRFPTKFV [RET1]	1.56
RLRQGAAKLRTLDYAER [RPL2A]	1.56

Now look at this one.
**Query** Please give the measured protein stability index for this sequence: SGNSANNMNVNMNLNPQ [GAL11]
**Result** 2.93

Data provenance: the supplement of paper PMC9732359
